assay: Cytotoxicity against chicken embryo fibroblasts infected with Influenza A virus (A/Chicken/Shandong/LY/08(H9N2)) preincubated for 1 hr followed by viral-infection measured after 2 days by MTS assay; type: cell-based, Gallus gallus, Fibroblast
Lab note - cut at 80 µM for CC50 at 48 h: Y if strictly below, N if not.

These recorded examples may help you get a feel for the data.
SAMPLE_SMILES: CCC(CC)C(=O)Nc1cc(N(Cc2cccs2)C(=O)/C=C/c2ccc(O)c(O)c2)ccc1OCC(=O)O
CLASSIFICATION: N

SAMPLE_SMILES: CCC(CC)CN(C(=O)/C=C/c1ccc(O)c(O)c1)c1ccc(OCC(=O)O)c(NC(=O)C(CC)CC)c1
CLASSIFICATION: N

SAMPLE_SMILES: CCC(CC)C(=O)Nc1cc(NC(=O)[C@@H](NC(=O)/C=C/c2ccc(O)c(O)c2)C(C)C)ccc1OCC(=O)O
CLASSIFICATION: Y

API: query returns whether the compound falls strictly under 80 µM in CC50 at 48 h. Query: `CCC(CC)C(=O)Nc1cc(NC(=O)[C@H](C)NC(=O)/C=C/c2ccc(O)c(O)c2)ccc1OCC(=O)O`
N

* * *

experiment: Cytotoxicity against chicken embryo fibroblasts infected with Influenza A virus (A/Chicken/Shandong/LY/08(H9N2)) preincubated for 1 hr followed by viral-infection measured after 2 days by MTS assay; format: cell-based, Gallus gallus, Fibroblast
RECORDED_ENDPOINT: CC50 at 48 h

Consider the following illustrative entries.
SAMPLE_SMILES: CCC(CC)C(=O)Nc1cc(NC(=O)CNC(=O)/C=C/c2ccc(O)c(O)c2)ccc1OCC(=O)O
CC50 at 48 h: > 100 µM

SAMPLE_SMILES: CCC(CC)C(=O)Nc1cc(NC(C)=O)c(NC(=O)/C=C/c2ccc(O)c(O)c2)cc1OCC(=O)O
CC50 at 48 h: > 100 µM

Now turn to the next molecule.
Entry `CCC(CC)C(=O)Nc1cc(NC(=O)C(C)C)c(NC(=O)/C=C/c2ccc(O)c(O)c2)cc1OCC(=O)O` , CC50 at 48 h reported as > 100 µM

* * *

Readings of IC50 for the listed compounds
target: Neuraminidase (Influenza A virus); assay: Inhibition of Influenza A virus (A/Chicken/Shandong/LY/08(H9N2)) neuraminidase using 4-MU-NANA as substrate incubated for 5 mins prior to substrate addition measured after 30 to 60 mins by fluorescence assay; set-up: species or system Influenza A virus (A/chicken/Shandong/LY/2008(H9N2))
Sequence (B4URF0 whole entry): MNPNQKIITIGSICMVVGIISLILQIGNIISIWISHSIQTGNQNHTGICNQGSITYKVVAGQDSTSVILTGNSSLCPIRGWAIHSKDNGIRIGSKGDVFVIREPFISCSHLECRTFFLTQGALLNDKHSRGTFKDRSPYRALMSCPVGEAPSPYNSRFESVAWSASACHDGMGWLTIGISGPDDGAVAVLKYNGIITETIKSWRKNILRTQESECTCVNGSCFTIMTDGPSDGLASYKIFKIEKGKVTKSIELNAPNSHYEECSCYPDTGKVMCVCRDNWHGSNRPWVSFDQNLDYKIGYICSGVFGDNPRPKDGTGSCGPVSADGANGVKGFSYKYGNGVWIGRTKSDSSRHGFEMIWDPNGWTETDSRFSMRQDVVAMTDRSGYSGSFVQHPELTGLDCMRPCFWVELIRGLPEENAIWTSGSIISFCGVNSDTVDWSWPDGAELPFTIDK
Write it as a number; the unit µM goes unstated.

SAMPLE_SMILES: CCC(CC)C(=O)Nc1cc(NC(C)=O)c(NC(=O)/C=C/c2ccc(O)c(O)c2)cc1OCC(=O)O
UNITS_OF_MEASURE: µM
IC50: 3.2

Value (IC50, Neuraminidase (Influenza A virus)) for record `CCC(CC)C(=O)Nc1cc(NC(=O)[C@H](C)NC(=O)/C=C/c2ccc(O)c(O)c2)ccc1OCC(=O)O` = 7.9

Value (IC50, Neuraminidase (Influenza A virus)) for record `CCC(CC)C(=O)Nc1cc(N(Cc2cccs2)C(=O)/C=C/c2ccc(O)c(O)c2)ccc1OCC(=O)O` = 24.1

Value (IC50, Neuraminidase (Influenza A virus)) for record `CCC(CC)C(=O)Nc1cc(NC(=O)C(C)C)c(N)cc1OCC(=O)O` = 54.3

Value (IC50, Neuraminidase (Influenza A virus)) for record `CCC(CC)C(=O)Nc1cc(NC(=O)[C@H](Cc2ccccc2)NC(=O)/C=C/c2ccc(O)c(O)c2)ccc1OCC(=O)O` = 9.8

Value (IC50, Neuraminidase (Influenza A virus)) for record `CCC(CC)C(=O)Nc1cc(NC(=O)C(C)C)c(NC(=N)N)cc1OCC(=O)O` = 83.2

Value (IC50, Neuraminidase (Influenza A virus)) for record `CCC(CC)C(=O)Nc1cc(NC(=O)NCc2ccccc2)ccc1OCC(=O)O` = 49.7

Value (IC50, Neuraminidase (Influenza A virus)) for record `CCC(CC)C(=O)Nc1cc(NC(=O)C(C)C)c(NC(=O)CCc2ccc(O)c(O)c2)cc1OCC(=O)O` = 14.2

Value (IC50, Neuraminidase (Influenza A virus)) for record `CCC(CC)C(=O)Nc1cc(N(Cc2ccccc2)C(=O)/C=C/c2ccc(O)c(O)c2)ccc1OCC(=O)O` = 16

Value (IC50, Neuraminidase (Influenza A virus)) for record `CCC(CC)C(=O)Nc1cc(NC(=O)C(C)C)c(NC(=O)/C=C/c2ccc(O)c(O)c2)cc1OCC(=O)O` = 5.8

Value (IC50, Neuraminidase (Influenza A virus)) for record `CCC(CC)C(=O)Nc1cc(NC(=O)[C@@H](NC(=O)/C=C/c2ccc(O)c(O)c2)C(C)C)ccc1OCC(=O)O` = 9.4

Value (IC50, Neuraminidase (Influenza A virus)) for record `C#CCNC(=O)Nc1ccc(OCC(=O)O)c(NC(=O)C(CC)CC)c1` = 89.8

Value (IC50, Neuraminidase (Influenza A virus)) for record `CCC(CC)C(=O)Nc1cc(NC(=O)[C@H](CC(C)C)NC(=O)/C=C/c2ccc(O)c(O)c2)ccc1OCC(=O)O` = 8.5

Value (IC50, Neuraminidase (Influenza A virus)) for record `CCC(CC)C(=O)Nc1cc(NC(C)=O)c(NC(=N)N)cc1OCC(=O)O` = 69.1

Source listed as ChEMBL document CHEMBL3091439.
